Source: patent US20260035382A1

- study_target: SAE (Homo sapiens (Human))
- Sequence (Q9UBT2 whole entry): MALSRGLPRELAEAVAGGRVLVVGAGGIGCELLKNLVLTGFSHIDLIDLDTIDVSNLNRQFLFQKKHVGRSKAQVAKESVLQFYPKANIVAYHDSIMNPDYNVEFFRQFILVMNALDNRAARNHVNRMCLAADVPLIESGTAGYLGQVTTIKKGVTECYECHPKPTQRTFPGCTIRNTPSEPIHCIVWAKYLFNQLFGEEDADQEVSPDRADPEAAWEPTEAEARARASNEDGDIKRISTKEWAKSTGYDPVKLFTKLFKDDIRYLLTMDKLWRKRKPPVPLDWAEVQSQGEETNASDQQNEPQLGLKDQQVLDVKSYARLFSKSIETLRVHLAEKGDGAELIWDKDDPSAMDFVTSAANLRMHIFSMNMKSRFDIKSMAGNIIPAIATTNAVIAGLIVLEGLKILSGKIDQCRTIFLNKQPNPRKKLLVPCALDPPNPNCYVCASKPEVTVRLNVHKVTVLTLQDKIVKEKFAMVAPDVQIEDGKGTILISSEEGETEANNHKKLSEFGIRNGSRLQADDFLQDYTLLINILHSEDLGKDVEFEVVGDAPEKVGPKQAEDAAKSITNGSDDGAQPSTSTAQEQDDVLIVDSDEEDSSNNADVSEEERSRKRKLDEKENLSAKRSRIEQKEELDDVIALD
- Sequence (Q9UBE0 whole entry partner): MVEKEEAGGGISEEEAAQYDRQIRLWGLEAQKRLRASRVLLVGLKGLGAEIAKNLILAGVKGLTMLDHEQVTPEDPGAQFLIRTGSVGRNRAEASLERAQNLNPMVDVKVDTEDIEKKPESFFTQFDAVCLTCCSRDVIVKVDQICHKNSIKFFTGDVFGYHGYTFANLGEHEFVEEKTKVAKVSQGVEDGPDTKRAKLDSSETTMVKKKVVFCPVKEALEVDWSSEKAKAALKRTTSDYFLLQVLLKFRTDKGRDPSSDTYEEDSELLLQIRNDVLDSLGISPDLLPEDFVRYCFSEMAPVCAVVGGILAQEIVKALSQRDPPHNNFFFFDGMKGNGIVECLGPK
- method_description: In vitro inhibitory activity assay against SAE (SUMO-2/3 immunofluorescence in HCT116 cells)
- Assay type: cell-based
- test_parameters: 6 h incubation, class symbols, read-out: SUMO IF IC50
pIC50: −log10 of the molar value.

molecule	pIC50
NS(=O)(=O)OC[C@H]1C[C@@H](Nc2ncncc2C(=O)c2cc3c(s2)OC[C@]32NCCc3ccc(Cl)cc32)C[C@@H]1O	6.70 to 7.30
NS(=O)(=O)OC[C@H]1C[C@@H](Nc2ncncc2C(=O)c2cc3c(s2)CSC[C@]32NCCc3ccc(F)cc32)C[C@@H]1O	≥ 7.30
NS(=O)(=O)OC[C@H]1C[C@@H](Nc2ncncc2C(=O)c2cc3c(s2)COC32NCCc3ccc(Cl)cc32)C[C@@H]1O (stereo partly drawn)	6.70 to 7.30
NS(=O)(=O)OC[C@H]1C[C@@H](Nc2ncncc2C(=O)c2cc3c(s2)CCC32NCCc3cc(Cl)c(F)cc32)C[C@@H]1O (stereo partly drawn)	6.70 to 7.30
NS(=O)(=O)OC[C@H]1C[C@@H](Nc2ncncc2C(=O)c2cc3c(s2)CCC[C@@]32NCCc3ncc(Cl)cc32)C[C@@H]1O	< 6.70
NS(=O)(=O)OC[C@H]1C[C@@H](Nc2ncncc2C(=O)c2cc3c(s2)COC[C@]32NCCc3c(Cl)cc(Cl)cc32)C[C@@H]1O	6.70 to 7.30
